Read-out: Intercellular Adhesion Molecule 1 (ICAM1), ICAM1 (gene 3383)
assay.notes: BSK_3C_ICAM1: BioMAP Diversity Plus: 3C Assay for Intercellular Adhesion Molecule 1 (ICAM1) Biomarker Activity (AID 2283003)
particulars: primary human endothelial cells (HUVEC); actives raise or lower the signal
The source made the active and inactive calls. How the source made its calls: active means hit-call score of the fitted dose curve at least 0.9, where 1 is the maximum; inactive means score below 0.9.
Just give me one of these, please: y = active, n = inactive

Past entries and their recorded results:
{"columns": ["compound", "label"],
 "data": [
  ["O=C(Nc1ccccc1)Nc1ccnc(Cl)c1", "n"],
  ["CCCN(CCC)c1c([N+](=O)[O-])cc(S(N)(=O)=O)cc1[N+](=O)[O-]", "y"],
  ["CCOC(=O)C(Cl)Cc1cc(-n2nc(C)n(C(F)F)c2=O)c(F)cc1Cl (configuration not stated)", "n"],
  ["CC(C)(C)c1ccc(CSc2cnn(C(C)(C)C)c(=O)c2Cl)cc1", "n"],
  ["O=C(O)c1nc(Cl)ccc1Cl", "n"]
]}

Just curious, what result did `CCCCOC(=O)c1ccccc1C(=O)OCCCC` get here? n

Answer briefly: the call reported for N#CC(CCc1ccc(Cl)cc1)(Cn1cncn1)c1ccccc1 (configuration not stated) in this assay. n

What was the test verdict on `CCNc1nc(Cl)nc(NC(C)C)n1` ? n

What was the test verdict on C=CCC1=C(C)C(OC(=O)C2C(C=C(C)C)C2(C)C)CC1=O (configuration not stated) ? n

What was the test verdict on `CC(C)Oc1cc(-n2nc(C(C)(C)C)oc2=O)c(Cl)cc1Cl` ? n

Called result for `CC1=C(C(=O)Nc2ccccc2)SCCO1` n

Give the logged outcome of this assay for the following compound: CCOC(=O)CC(SP(=S)(OC)OC)C(=O)OCC (configuration not stated) n

====

Read-out: Monokine induced gamma interferon (MIG), CXCL9 (gene 4283)
assay.notes: BSK_BE3C_MIG: BioMAP Diversity Plus: BE3C Assay for Monokine induced gamma interferon (MIG) Biomarker Activity (AID 2283035);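 further: MIG protein measured by ELISA in BE3C cultures after 24 h of dosing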
particulars: primary human bronchial epithelial cells; actives raise or lower the signal
Calls of active or inactive are those of the source. How the source made its calls: active means hit-call score of the fitted dose curve at least 0.9, where 1 is the maximum; inactive means score below 0.9.
Hi! Could you answer with just one of these? active, inactive

{"columns": ["molecule", "label"],
 "data": [
  ["C=CCC1=C(C)[C@@H](OC(=O)[C@@H]2[C@@H](C=C(C)C)C2(C)C)CC1=O", "inactive"],
  ["Cc1ccc(-c2c(Cl)nc(C#N)n2S(=O)(=O)N(C)C)cc1", "inactive"],
  ["COC(=O)C(C)Oc1ccc(Oc2ccc(Cl)cc2Cl)cc1 (stereo unspecified)", "inactive"],
  ["N#CC(CCc1ccc(Cl)cc1)(Cn1cncn1)c1ccccc1 (stereo unspecified)", "inactive"]
]}

# fetch the recorded call for `CCCCOC(=O)c1ccccc1C(=O)OCCCC` here inactive

Hey, what did the test say about `COC(=O)N(OC)c1ccccc1COc1ccn(-c2ccc(Cl)cc2)n1` ? inactive

What did the test return for `Cc1cc(Cl)ccc1OCC(=O)O` ? inactive

Called result for `CC(C)Oc1cc(-n2nc(C(C)(C)C)oc2=O)c(Cl)cc1Cl` inactive

// outcome(item) with item = CCOC(=O)C(Cl)Cc1cc(-n2nc(C)n(C(F)F)c2=O)c(F)cc1Cl (stereo unspecified) inactive

For this molecule, state the assay outcome: `CO/C=C(/C(=O)OC)c1ccccc1Oc1cc(Oc2ccccc2C#N)ncn1` inactive

For CCCC1COC(Cn2cncn2)(c2ccc(Cl)cc2Cl)O1 (stereo unspecified) , what call appears in the results of this test? inactive

Could you kindly confirm the outcome this assay logged for `COC(=O)C=C(C)OP(=O)(OC)OC` ? inactive
